- measuredTarget: human IDO1 expressing HEK293 recombinant cells (Homo sapiens, UniProt P14902)
- Construct: expressed in transfected cells; host or cells: Flp-In-Rex- HEK293 cells (Invitrogen), pcDNA5/FRT/TO vector, doxycycline-induced
- Sequence (P14902 whole entry): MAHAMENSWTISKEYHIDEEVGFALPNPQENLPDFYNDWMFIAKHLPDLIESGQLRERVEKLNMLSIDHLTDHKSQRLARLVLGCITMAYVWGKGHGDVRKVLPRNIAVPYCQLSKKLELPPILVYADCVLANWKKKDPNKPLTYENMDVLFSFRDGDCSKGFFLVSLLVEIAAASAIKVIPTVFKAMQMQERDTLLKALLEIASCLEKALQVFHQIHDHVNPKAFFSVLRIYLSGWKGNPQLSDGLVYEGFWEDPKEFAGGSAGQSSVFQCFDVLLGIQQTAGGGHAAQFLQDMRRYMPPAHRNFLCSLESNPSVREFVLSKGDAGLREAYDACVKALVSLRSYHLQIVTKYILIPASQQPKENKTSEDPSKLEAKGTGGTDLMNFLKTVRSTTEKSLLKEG
- protocolSummary: Cell based assay for anti-IDO1 activity by determination of tryptophan and kynurenine in culture supernatant using LC-MS
- measurementContext: human IDO1-expressing HEK293 cells, doxycycline induced, 24 h, kynurenine by LC-MS, dose-response curve; read-out: HEK293 IC50 Kynurenine Production

| compound | inequalitySign | IC50, µM |
| --- | --- | --- |
| O/N=C(\Nc1cc(F)ccc1F)c1cccc2cn[nH]c12 [Compound 8e] | > | 10 |
| O/N=C(\Nc1ccc(F)c(Br)c1)c1ccccc1O [Compound 16] | = | 7.91 |
| O/N=C(\Nc1ccc(Cl)cc1)c1cccc2cn[nH]c12 [Compound 8k] | > | 10 |
| O/N=C(\Nc1ccc(F)c(Br)c1)c1cccc2cn[nH]c12 [Compound 8a] | = | 2.13 |
| COc1ccc(N/C(=N\O)c2cccc3cn[nH]c23)cc1 [Compound 8l] | > | 10 |
